Species on record: Rattus norvegicus
Experiment: Open TG-GATES - Regimen: Single
Format: toxicity, organism-based, Sprague-Dawley
Set-up: regimen Single, gender Male, age 6 weeks
Details: in vivo, po, 100 mg/kg, 24 h, route gavage, dose level Low
Could you please mark 1 for values of TERMINAL_BW below 200 g and 0 for values at or above it?

Consider the following illustrative entries.
molecule: Clc1ccccc1CN1CCc2sccc2C1
group label: 0
--
molecule: CCc1cc(C(N)=S)ccn1 [ETHIONAMIDE]
group label: 0
--
molecule: C[C@H](CS)C(=O)N1CCC[C@H]1C(=O)O
group label: 0
--
molecule: O=C(O)c1cc(/N=N/c2ccc(S(=O)(=O)Nc3ccccn3)cc2)ccc1O
group label: 0

Please examine the following record next.
Would you kindly verify if TERMINAL_BW of O=C(O)c1cn(C2CC2)c2cc(N3CCNCC3)c(F)cc2c1=O is strictly less than 200 g?
1

---

Species on record: Rattus norvegicus
Test: Open TG-GATES - Regimen: Single
Assay type: toxicity, organism-based, Sprague-Dawley
Set-up: regimen Single, gender Male, age 6 weeks
Settings: in vivo, po, 300 mg/kg, 3 h, tissue Plasma, route gavage, dose level Middle
The following molecules are listed with their measured IP values.
Provide only the numeric value, understood in mg/dL.

For this molecule ( C[C@H](CS)C(=O)N1CCC[C@H]1C(=O)O ), measured IP is 9.3

For this molecule ( Clc1ccccc1CN1CCc2sccc2C1 ), measured IP is 10.5

For this molecule ( O=C(O)c1cc(/N=N/c2ccc(S(=O)(=O)Nc3ccccn3)cc2)ccc1O ), measured IP is 9.6

For this molecule ( CCc1cc(C(N)=S)ccn1 [ETHIONAMIDE] ), measured IP is 9.6

For this molecule ( O=C(O)c1cn(C2CC2)c2cc(N3CCNCC3)c(F)cc2c1=O ), measured IP is 9.9

---

Species on record: Rattus norvegicus
Assay: Open TG-GATES - Regimen: Single
Type: toxicity, organism-based, Sprague-Dawley
Design: regimen Single, gender Male, age 6 weeks
Conditions: in vivo, po, 0 mg/kg, 24 h, tissue Plasma, route gavage, dose level Control
Rule: 1 for AST not less than 70 IU/L, -1 for anything less.

Consider the following illustrative entries.
compound: CC(=O)Oc1ccccc1C(=O)O [ASPIRIN]
group label: 1
--
compound: Clc1ccccc1CN1CCc2sccc2C1 [TICLOPIDINE]
group label: 1
--
compound: NC(=O)N/N=C/c1ccc([N+](=O)[O-])o1 [NITROFURAZONE]
group label: 1
--
compound: COc1cc2c(c3oc(=O)c4c(c13)CCC4=O)[C@@H]1C=CO[C@@H]1O2 [AFLATOXIN]
group label: 1
--
compound: CSc1ccc2c(c1)N(CCC1CCCCN1C)c1ccccc1S2 (stereo not given) [THIORIDAZINE]
group label: -1

I'd appreciate it if you could say whether CN(C)CCC=C1c2ccccc2CCc2ccccc21 [AMITRIPTYLINE] has AST at least equal to 70 IU/L.
1

I'd appreciate it if you could say whether O=C(O)c1cn(C2CC2)c2cc(N3CCNCC3)c(F)cc2c1=O [CIPROFLOXACIN] has AST at least equal to 70 IU/L.
1

I'd appreciate it if you could say whether C[C@H](CS)C(=O)N1CCC[C@H]1C(=O)O [CAPTOPRIL] has AST at least equal to 70 IU/L.
-1

Entry source: ChEMBL document CHEMBL3885861
